Field: CLint scaled at 1 µM. Provide a value for each of the compounds that follow.
# Protocol Description: Clearance in hepatocytes, rat
# Type: in vitro ADME
# Protocol Conditions: 1 microM, read-out: CLint, Rat (L/h/kg) ± SD (converted)
One number for each entry, in L/h/kg.

[[record]]
compound = "COc1cnc(C(=O)Nc2ccc(F)c([C@]3(C)CC[C@@](F)(CF)C(N)=N3)c2)cn1 [Compound Z]"
measure_unit = "L/h/kg"
result = 1


Now turn to the next compound.
Param item = [2H]C([2H])([2H])Oc1ccc(C(=O)Nc2ccc(F)c([C@@]3(C(F)F)N=C(N)CCC3(F)F)c2)nc1 [Compound Y] ; retrieve measured CLint scaled at 1 µM.
2.1

====

# Protocol Description: Clearance in hepatocytes, rat
# Format: in vitro ADME
# Protocol Conditions: 0.3 microM, read-out: CLint, Rat (L/h/kg) ± SD (converted)
Metric: CLint scaled at 0.3 µM
Kindly format the answer as number then unit.

Guide cases for CLint scaled at 0.3 µM, answers given:
[[record]]
compound_smiles = "[2H]C([2H])([2H])Oc1ccc(C(=O)Nc2ccc(F)c([C@@]3(C(F)F)N=C(N)CCC3(F)F)c2)nc1"
result = "1 L/h/kg"

[[record]]
compound_smiles = "[2H]C([2H])([2H])Oc1cnc(C(=O)Nc2ccc(F)c([C@]3(C)CC[C@@](F)(CF)C(N)=N3)c2)cn1"
result = "1.2 L/h/kg"


Param item = `COc1cnc(C(=O)Nc2ccc(F)c([C@]3(C)CC[C@@](F)(CF)C(N)=N3)c2)cn1` ; retrieve measured CLint scaled at 0.3 µM.
1.5 L/h/kg

====

# Protocol Description: Bioanalysis of brain and plasma samples (UPLC-MS/MS)
# Type: in vivo, Sprague Dawley rats
# Protocol Conditions: male, Sprague-Dawley, brain/plasma, po; rat, p.o., 40 mg/kg, 3 h; read-out: Brain/Plasma ratio
Metric: Kp at 3 h
Numbers only.

Param item = `[2H]C([2H])([2H])Oc1cnc(C(=O)Nc2ccc(F)c([C@]3(C)CC[C@@](F)(CF)C(N)=N3)c2)cn1` ; retrieve measured Kp at 3 h.
2.8

====

# Protocol Description: Bioanalysis of brain and plasma samples (UPLC-MS/MS)
# Format: in vivo, Sprague Dawley rats
# Protocol Conditions: male, Sprague-Dawley, brain, po; rat, p.o., 20 mg/kg, 0.5 h; read-out: Mean rat brain conc.
Metric: concentration at 0.5 h (ng/g)
Numbers only, in ng/g.

Param item = [2H]C([2H])([2H])Oc1cnc(C(=O)Nc2ccc(F)c([C@]3(C)CC[C@@](F)(CF)C(N)=N3)c2)cn1 [Example 1] ; retrieve measured concentration at 0.5 h.
1530

====

# Protocol Description: Clearance in hepatocytes, human
# Type: in vitro ADME
# Protocol Conditions: 0.1 microM, read-out: CLint, Human (L/h/kg) ± SD (converted)
Metric: CLint scaled at 0.1 µM

Each molecule below has a reported value. Please supply its CLint scaled at 0.1 µM.
1. [2H]C([2H])([2H])Oc1ccc(C(=O)Nc2ccc(F)c([C@@]3(C(F)F)N=C(N)CCC3(F)F)c2)nc1
2. [2H]C([2H])([2H])Oc1cnc(C(=O)Nc2ccc(F)c([C@]3(C)CC[C@@](F)(CF)C(N)=N3)c2)cn1
3. COc1cnc(C(=O)Nc2ccc(F)c([C@]3(C)CC[C@@](F)(CF)C(N)=N3)c2)cn1

["< 0.1 L/h/kg", "< 0.1 L/h/kg", "1 L/h/kg"]

====

# Protocol Description: Clearance in hepatocytes, cyno
# Type: in vitro ADME
# Protocol Conditions: cynomolgus monkey, 0.1 microM, read-out: CLint, Cyno (L/h/kg) ± SD (converted)
Field: CLint scaled at 0.1 µM. Provide a value for each of the compounds that follow.
Kindly format the answer as number then unit.

Each compound below has a reported value. Please supply its CLint scaled at 0.1 µM.
1. [2H]C([2H])([2H])Oc1cnc(C(=O)Nc2ccc(F)c([C@]3(C)CC[C@@](F)(CF)C(N)=N3)c2)cn1
2. COc1cnc(C(=O)Nc2ccc(F)c([C@]3(C)CC[C@@](F)(CF)C(N)=N3)c2)cn1
3. [2H]C([2H])([2H])Oc1ccc(C(=O)Nc2ccc(F)c([C@@]3(C(F)F)N=C(N)CCC3(F)F)c2)nc1

1: 75 L/h/kg; 2: 137 L/h/kg; 3: 80 L/h/kg

====

# Protocol Description: Bioanalysis of brain and plasma samples (UPLC-MS/MS)
# Type: in vivo, Sprague Dawley rats
# Protocol Conditions: male, Sprague-Dawley, plasma, po; rat, p.o., 20 mg/kg, 6 h; read-out: Mean rat plasma conc.
# Procedure: Young adult Male Sprague Dawley rats of approximately 250 g weight were purchased from Charles River and received vehicle (2.5% HP betaCD+1M MeSO4, pH 2.5) or 0-40 mg/kg of test compounds (dissolved in vehicle) by oral gavage (p.o). The compounds are dosed at a volume of 5 ml/kg. Cohorts of 5-10 animals were established for each treatment condition. […] TC was determined in plasma and brain homogenate using UltraPerformance LC® (UPLC®) chromatography followed by tandem-MS (MS/MS) detection. […]
Metric: concentration at 6 h
Kindly format the answer as number then unit.

Param item = `[2H]C([2H])([2H])Oc1cnc(C(=O)Nc2ccc(F)c([C@]3(C)CC[C@@](F)(CF)C(N)=N3)c2)cn1` ; retrieve measured concentration at 6 h.
477 ng/mL

====

# Protocol Description: Clearance in microsomes, rat
# Type: in vitro ADME
# Protocol Conditions: 1 microM, read-out: CLint, Rat (L/h/kg) ± SD (converted)
Metric: CLint scaled at 1 µM (L/h/kg)
Answers are plain numbers, in L/h/kg.

Guide cases for CLint scaled at 1 µM, answers given:
[[record]]
compound = "COc1cnc(C(=O)Nc2ccc(F)c([C@]3(C)CC[C@@](F)(CF)C(N)=N3)c2)cn1 [Compound Z]"
metric = "CLint scaled at 1 µM"
result = 1.3

[[record]]
compound = "[2H]C([2H])([2H])Oc1ccc(C(=O)Nc2ccc(F)c([C@@]3(C(F)F)N=C(N)CCC3(F)F)c2)nc1 [Compound Y]"
metric = "CLint scaled at 1 µM"
result = 1


Now turn to the next compound.
Param item = [2H]C([2H])([2H])Oc1cnc(C(=O)Nc2ccc(F)c([C@]3(C)CC[C@@](F)(CF)C(N)=N3)c2)cn1 [Example 1] ; retrieve measured CLint scaled at 1 µM.
0.9

====

# Protocol Description: Clearance in microsomes, cyno
# Assay type: in vitro ADME
# Protocol Conditions: cynomolgus monkey, 0.3 microM, read-out: CLint, Cyno (L/h/kg) ± SD (converted)
Metric: CLint scaled at 0.3 µM (L/h/kg)
Give bare numbers, in L/h/kg.

Param item = COc1cnc(C(=O)Nc2ccc(F)c([C@]3(C)CC[C@@](F)(CF)C(N)=N3)c2)cn1 [Compound Z] ; retrieve measured CLint scaled at 0.3 µM.
61

====

# Protocol Description: Clearance in hepatocytes, dog
# Format: in vitro ADME
# Protocol Conditions: 0.1 microM, read-out: CLint, Dog (L/h/kg) ± SD (converted)
Field: CLint scaled at 0.1 µM. Provide a value for each of the compounds that follow.
Answers are plain numbers, in L/h/kg.

Guide cases for CLint scaled at 0.1 µM, answers given:
[[record]]
compound_smiles = "COc1cnc(C(=O)Nc2ccc(F)c([C@]3(C)CC[C@@](F)(CF)C(N)=N3)c2)cn1"
measure_unit = "L/h/kg"
result = 112

[[record]]
compound_smiles = "[2H]C([2H])([2H])Oc1cnc(C(=O)Nc2ccc(F)c([C@]3(C)CC[C@@](F)(CF)C(N)=N3)c2)cn1"
measure_unit = "L/h/kg"
result = 34


Param item = `[2H]C([2H])([2H])Oc1ccc(C(=O)Nc2ccc(F)c([C@@]3(C(F)F)N=C(N)CCC3(F)F)c2)nc1` ; retrieve measured CLint scaled at 0.1 µM.
98

====

# Protocol Description: Bioanalysis of brain and plasma samples (UPLC-MS/MS)
# Assay type: in vivo, Sprague Dawley rats
# Protocol Conditions: male, Sprague Dawley, brain, po; rat, p.o., 10 mg/kg, 12 h; read-out: Mean rat brain conc.
# Description: Young adult Male Sprague Dawley rats of approximately 250 g weight were purchased from Charles River and received vehicle (2.5% HP betaCD+1M MeSO4, pH 2.5) or 0-40 mg/kg of test compounds (dissolved in vehicle) by oral gavage (p.o). The compounds are dosed at a volume of 5 ml/kg. Cohorts of 5-10 animals were established for each treatment condition. […] TC was determined in plasma and brain homogenate using UltraPerformance LC® (UPLC®) chromatography followed by tandem-MS (MS/MS) detection. […]
Metric: concentration at 12 h (ng/g)
One number for each entry, in ng/g.

Param item = [2H]C([2H])([2H])Oc1cnc(C(=O)Nc2ccc(F)c([C@]3(C)CC[C@@](F)(CF)C(N)=N3)c2)cn1 [Example 1] ; retrieve measured concentration at 12 h.
140
